- system.name: Histone deacetylase (Homo sapiens) (UniProt Q13547+O15379+Q9UBN7+Q92769+Q9UQL6+Q8WUI4+Q9BY41+Q96DB2+P56524+Q9UKV0+Q969S8)
- protocol.summary: Inhibition of HDAC in human HeLa nuclear extract assessed as enzyme residual activity at 100 uM using Boc-Lys(acetyl)-AMC as substrate and measured after 15 mins by fluorescence assay relative to control
- Type: cell-free
# key: entry, value: Activity
attribute.measured: Activity (%)

CCCC(CCC)C(=O)N(C)/N=N/c1ccc(C(=O)OCC)cc1 : 55.3
CCCC(CCC)C(=O)N(C)/N=N/c1ccc(Cl)cc1 : 66.4
CCCC(CCC)C(=O)N(C)/N=N/c1ccc(C#N)cc1 : 94.6
CCCC(=O)N(C)/N=N/c1ccc(C#N)cc1 : 54.9
CCCC(CCC)C(=O)N(C)/N=N/c1ccc(C)cc1 : 89
CCCC(CCC)C(=O)N(C)/N=N/c1ccc(C(N)=O)cc1 : 79.8
CCC(CC)C(=O)N(C)/N=N/c1ccc(C#N)cc1 : 95.1
CC(C)C(=O)N(C)/N=N/c1ccc(C#N)cc1 : 77.6
CCCC(CCC)C(=O)N(C)/N=N/c1ccc(Br)cc1 : 82.5
CCCC(CCC)C(=O)N(C)/N=N/c1ccc(C(C)=O)cc1 : 85.8
CCCC(CCC)C(=O)N(C)/N=N/c1ccc(C(=O)OC)cc1 : 92.7

----------
- system.name: Histone deacetylase (Homo sapiens) (UniProt Q13547+O15379+Q9UBN7+Q92769+Q9UQL6+Q8WUI4+Q9BY41+Q96DB2+P56524+Q9UKV0+Q969S8)
- protocol.summary: Inhibition of HDAC in human HeLa nuclear extract assessed as enzyme residual activity at 25 uM using Boc-Lys(acetyl)-AMC as substrate and measured after 15 mins by fluorescence assay relative to control
- Format: cell-free
Rule: Activity below 90% gives MET, anything at or above gives NOT MET.

CC(C)C(=O)N(C)/N=N/c1ccc(C#N)cc1 : NOT MET
CCCC(CCC)C(=O)N(C)/N=N/c1ccc(C(=O)OC)cc1 : NOT MET
CCC(CC)C(=O)N(C)/N=N/c1ccc(C#N)cc1 : NOT MET
CCCC(CCC)C(=O)N(C)/N=N/c1ccc(Cl)cc1 : MET
CCCC(CCC)C(=O)N(C)/N=N/c1ccc(C(=O)OCC)cc1 : MET
CCCC(=O)N(C)/N=N/c1ccc(C#N)cc1 : MET
CCCC(CCC)C(=O)N(C)/N=N/c1ccc(C)cc1 : NOT MET
CCCC(CCC)C(=O)N(C)/N=N/c1ccc(Br)cc1 : NOT MET
CCCC(CCC)C(=O)N(C)/N=N/c1ccc(C(C)=O)cc1 : NOT MET
CCCC(CCC)C(=O)N(C)/N=N/c1ccc(C#N)cc1 : NOT MET

----------
# key: entry, value: Activity
- system.name: Histone deacetylase (Homo sapiens) (UniProt Q13547+O15379+Q9UBN7+Q92769+Q9UQL6+Q8WUI4+Q9BY41+Q96DB2+P56524+Q9UKV0+Q969S8)
- protocol.summary: Inhibition of HDAC in human HeLa nuclear extract assessed as enzyme residual activity at 6.25 uM using Boc-Lys(acetyl)-AMC as substrate and measured after 15 mins by fluorescence assay relative to control
- Assay type: cell-free
attribute.measured: Activity (%)

CCCC(CCC)C(=O)N(C)/N=N/c1ccc(Cl)cc1 : 93
CCCC(CCC)C(=O)N(C)/N=N/c1ccc(Br)cc1 : 98.9
CC(C)C(=O)N(C)/N=N/c1ccc(C#N)cc1 : 95.9
CCCC(CCC)C(=O)N(C)/N=N/c1ccc(C(N)=O)cc1 : 90.5
CCCC(CCC)C(=O)N(C)/N=N/c1ccc(C(=O)OC)cc1 : 92.9
CCC(CC)C(=O)N(C)/N=N/c1ccc(C#N)cc1 : 97.7
CCCC(CCC)C(=O)N(C)/N=N/c1ccc(C(C)=O)cc1 : 98.6
CCCC(CCC)C(=O)N(C)/N=N/c1ccc(C)cc1 : 94.5
CCCC(CCC)C(=O)N(C)/N=N/c1ccc(C#N)cc1 : 99.1
CCCC(=O)N(C)/N=N/c1ccc(C#N)cc1 : 97.1
CCCC(CCC)C(=O)N(C)/N=N/c1ccc(C(=O)OCC)cc1 : 88.3

All values here come from ChEMBL document CHEMBL4393663.
